Test system: viral RNA polymerase
Assay Method Text: Potential inhibitors: Results Hit validation
Assay type: biochemical
Stated Conditions: test concentration not given
Description: Compound stocks were prepared at a concentration of 1 mM in 65% DMSO, at a volume of 5 μL each.
Provide the recorded Results Hit validation Median (% inhibition) for the entries that follow.
Provide only the numeric value, understood in % inhibition.

Results Hit validation Median (% inhibition) for CC(C)C1NC(=O)C2CCCN2C1=O (stereo not shown) [AD153413-12_C11] is 44.2

Results Hit validation Median (% inhibition) for C=C(C)C1=C[C@@]2(C)C(=CC1=O)CC[C@@H](O)[C@@H]2C [AD153413-10_F2] is 50.8

Results Hit validation Median (% inhibition) for COc1cc(C)cc(C(=O)O)c1C1=C(O)C(=O)c2c(O)cccc2C1=O [AD153413-06_A10] is 64.1

Results Hit validation Median (% inhibition) for CC(=O)O[C@H]1C[C@@H](O)[C@]23COC(O)[C@@]1(C)C2C[C@H](O)[C@@]1(C)C3C(=O)[C@@H](OC(C)=O)[C@]2(C)[C@@H](c3ccoc3)C[C@@H]3O[C@@]321 (stereo partly shown) [AD153413-19_D3] is 41.6

Results Hit validation Median (% inhibition) for CCC(C)C(=O)O[C@H]1CCC=C2C=C[C@H](C)[C@H](CC[C@@H](O)C[C@@H](O)CC(=O)O)[C@H]21 (stereo partly shown) [AD153413-09_E2] is 60.5

Results Hit validation Median (% inhibition) for Oc1cc(O)cc(CCC/C=C\CCCCCCCCCc2cc(O)cc(O)c2)c1 [AD153413-03_H2] is 48.9

Results Hit validation Median (% inhibition) for CCC(C)C(=O)OC1CC(C)C=C2C=CC(C)C(CCC(O)CC(O)CC(=O)O)C21 (stereo not shown) [AD153413-16_G9] is 64.7

----------
Test system: viral RNA polymerase
Assay Method Text: Potential inhibitors: Results Screen
Type: biochemical
Stated Conditions: test concentration not given
Reported Endpoint: Results Screen Median Screen (% inhibition)
Provide only the numeric value, understood in % inhibition.

Results Screen Median Screen (% inhibition) for COc1cc(C)cc(C(=O)O)c1C1=C(O)C(=O)c2c(O)cccc2C1=O [AD153413-06_A10] is 72.4

Results Screen Median Screen (% inhibition) for CC(=O)O[C@H]1C[C@@H](O)[C@]23COC(O)[C@@]1(C)C2C[C@H](O)[C@@]1(C)C3C(=O)[C@@H](OC(C)=O)[C@]2(C)[C@@H](c3ccoc3)C[C@@H]3O[C@@]321 (stereo partly drawn) [AD153413-19_D3] is 71.8

Results Screen Median Screen (% inhibition) for CC[C@H](C1=C(O)C(C)(C)C(=O)C(C)(C)C1=O)c1c(O)cc(O)c(C(=O)C(C)C)c1O [AD153413-09_B9] is 85.2

----------
Provide the recorded Results Hit validation Median (% inhibition) for the entries that follow.
System: viral RNA polymerase
Assay Method Text: Potential inhibitors: Results Hit validation
Type: biochemical
Stated Conditions: test concentration not given

Results Hit validation Median (% inhibition) for COc1cc(C2c3c(cc(OC)c(O)c3O)CC(CO)C2CO[C@H]2O[C@@H](C(=O)O)[C@H](O)[C@@H](O)[C@@H]2O)cc(OC)c1O (stereo partly drawn) [AD153413-11_A11] is 57.1 % inhibition

Results Hit validation Median (% inhibition) for CC1(C)CCC[C@@]2(C)[C@H]1[C@H](O)C=C1COC(=O)[C@]12O (racemic) [AD153413-10_B3] is 43.3 % inhibition

Results Hit validation Median (% inhibition) for O=C1c2ccc(O)cc2O[C@H](c2ccc(O)c(O)c2)[C@H]1O [AD153413-21_A6] is 54.7 % inhibition

Results Hit validation Median (% inhibition) for C=C(/C=C/[C@@H](CCC(=O)O)C(C)C)CCC(C)=O [AD153413-08_B4] is 41.9 % inhibition

Results Hit validation Median (% inhibition) for COc1cc(C2OC(c3cc(OC)c(OC)c(OC)c3)C(C)C2C)cc(OC)c1OC (stereo not drawn) [AD153413-14_E9] is 43.8 % inhibition

Results Hit validation Median (% inhibition) for COc1ccc(CCC(=O)O)cc1 [AD153413-03_F11] is 41.8 % inhibition

Results Hit validation Median (% inhibition) for CC[C@H](C)/C=C(C)/C=C/C(=O)Cc1cc(O)c(C)c(O)c1C=O [AD153413-17_A5] is 70.9 % inhibition

Results Hit validation Median (% inhibition) for NC(=O)c1c[nH]c(Cc2ccccc2)cc1=O [AD153413-06_B9] is 42.9 % inhibition

Results Hit validation Median (% inhibition) for CCCCC(C)C(=O)C(CC(C)CCCCCCC(O)CC(O)C(C)NC(C)=O)OC(=O)CC(CC(=O)O)C(=O)O (stereo not drawn) [AD153413-12_D11] is 50.1 % inhibition

Results Hit validation Median (% inhibition) for COc1cc(O)c2c(c1)C(O)C(C)OC2=O (stereo not drawn) [AD153413-16_B4] is 53.6 % inhibition

Results Hit validation Median (% inhibition) for O=C(/C=C/c1ccc(O)c2c1C(C(=O)O)C(c1ccc(O)c(O)c1)O2)OC(Cc1ccc(O)c(O)c1)C(=O)O (stereo not drawn) [AD153413-16_E3] is 55.9 % inhibition

Results Hit validation Median (% inhibition) for COc1cc(O)c2c(=O)c(O[C@H]3O[C@H](C)[C@@H](O)[C@H](O)[C@@H]3O)c(-c3ccc(O)cc3)oc2c1O [AD153413-05_B3] is 43.6 % inhibition

Results Hit validation Median (% inhibition) for CC(=O)O[C@H]1CC[C@]2(C)C(CC[C@@]3(C)C2[C@@H](O)C=C2[C@@H]4[C@H](C)[C@@H](C)CC[C@@]4(C)CC[C@@]23C)[C@]1(C)C(C)=O (stereo partly drawn) [AD153413-25_A8] is 86.3 % inhibition

Results Hit validation Median (% inhibition) for C[C@]1(C(=O)O)CC[C@@]2(C)CC[C@@]3(C)C4=CC(=O)c5cc(O)c(O)cc5[C@@]4(C)CC[C@]3(C)[C@H]2C1 [AD153413-04_H6] is 52.2 % inhibition

Results Hit validation Median (% inhibition) for C/C=C/c1ccc2c(c1)[C@H](C)[C@@H](c1ccc(O)cc1)O2 [AD153413-19_H4] is 50.8 % inhibition
